target: Recombinant human IL-1β (BioLegend 579404) (human, UniProt P01584 117-269); assay: cell-based or functional assay
Non-standard residues stand in square brackets, D forms with d. Trp(βS-Me,4-F) = C[C@@H](c1c[nH]c2cccc(F)c12)[C@H](N)C(=O)O; Bip(4'-COOH) = N[C@@H](Cc1ccc(-c2ccc(C(=O)O)cc2)cc1)C(=O)O; dPro(4R-Bzl(4-F)) = O=C(O)[C@H]1C[C@@H](Cc2ccc(F)cc2)CN1; Ala(morpholin-4-yl) = N[C@@H](CN1CCOCC1)C(=O)O; Phe(4-COOH) = N[C@@H](Cc1ccc(C(=O)O)cc1)C(=O)O; Pro(cis-4-F) = O=C(O)[C@@H]1C[C@H](F)CN1; 4Pal = N[C@@H](Cc1ccncc1)C(=O)O; Dab = NCC[C@H](N)C(=O)O; Aib = CC(C)(N)C(=O)O
RECORDED ENDPOINT: MRC5 IC50 (nM)

P: cyclo([Bip(4'-COOH)][4Pal][Phe(4-COOH)]G[Pro(cis-4-F)][Trp(βS-Me,4-F)][Aib]EW[Aib][Ala(morpholin-4-yl)]Q[Dab]G[dPro(4R-Bzl(4-F))]) (ring closure inferred) [SEQ ID NO: 126]
Q: cyclo([Bip(4'-COOH)][4Pal][Phe(4-COOH)]G[Pro(cis-4-F)][Trp(βS-Me,4-F)][Aib]EW[Aib][Ala(morpholin-4-yl)]QSG[dPro(4R-Bzl(4-F))]) (ring closure inferred) [SEQ ID NO: 125]
Lower value for measured MRC5 IC50? Options: P , Q // output: label of the selected item P
(P: 0.022 nM, Q: 0.041 nM)

Each recorded value in this set is attributed to patent US20260242419A1.
